Molecular target: T1, human NPR1 expressed on CHO-K1 cells (human, UniProt P16066 33-1061)
T1 sequence: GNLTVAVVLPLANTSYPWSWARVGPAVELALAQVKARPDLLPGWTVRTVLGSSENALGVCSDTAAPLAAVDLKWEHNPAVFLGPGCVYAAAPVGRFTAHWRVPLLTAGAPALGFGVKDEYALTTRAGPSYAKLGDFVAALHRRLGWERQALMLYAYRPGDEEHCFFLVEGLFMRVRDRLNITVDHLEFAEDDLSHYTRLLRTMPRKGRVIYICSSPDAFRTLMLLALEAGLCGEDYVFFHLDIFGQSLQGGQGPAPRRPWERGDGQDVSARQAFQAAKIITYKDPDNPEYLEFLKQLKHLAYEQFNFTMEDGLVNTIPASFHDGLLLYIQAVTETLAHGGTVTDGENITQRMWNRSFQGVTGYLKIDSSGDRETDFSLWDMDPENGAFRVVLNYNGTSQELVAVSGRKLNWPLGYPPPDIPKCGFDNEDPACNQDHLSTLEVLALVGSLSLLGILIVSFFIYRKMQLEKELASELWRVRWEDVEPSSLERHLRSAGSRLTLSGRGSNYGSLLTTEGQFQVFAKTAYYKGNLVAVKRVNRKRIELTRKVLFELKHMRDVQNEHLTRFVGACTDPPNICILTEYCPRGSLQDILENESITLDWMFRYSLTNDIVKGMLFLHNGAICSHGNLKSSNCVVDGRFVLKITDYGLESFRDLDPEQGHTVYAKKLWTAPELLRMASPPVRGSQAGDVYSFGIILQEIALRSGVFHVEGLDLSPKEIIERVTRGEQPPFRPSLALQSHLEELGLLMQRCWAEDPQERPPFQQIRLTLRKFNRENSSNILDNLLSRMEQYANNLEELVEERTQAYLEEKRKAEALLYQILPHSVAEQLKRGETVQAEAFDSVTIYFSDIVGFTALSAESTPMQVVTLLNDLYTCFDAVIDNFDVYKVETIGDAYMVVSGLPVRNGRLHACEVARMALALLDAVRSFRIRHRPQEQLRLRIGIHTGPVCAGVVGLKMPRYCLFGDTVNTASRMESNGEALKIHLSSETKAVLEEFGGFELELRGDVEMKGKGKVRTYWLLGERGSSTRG
Test: cell-based or functional assay
metric: cGMP conc [nM] at 1 uM FabCys, without ANP (nM)

binder	observedMeasurement
YY01 FabCys (Fab, V domains shown) VH: EVQLVESGGGLVQPGGSLRLSCAASGFTFSSYWISWVRQAPGKGLEWVANIKQSGSETYYVESVKGRFTISRDNAKNSLYLQMNSLRAEDTAVYYCARSLRRRSTEHAGFDVWGQGTLVTVSS VL: DIQMTQSPSSLSASVGDRVTITCRASQGISNYLAWYQQKPGKVPKLLIYAASTLQSGVPSRFSGSGSGTDFTLTISSLQPEDVATYYCQQADKFPYTFGQGTKVEIK	15
